I'd appreciate it if you could supply pIC50 values for the items below.
Test system: Hs 766
Method Description: Cytotoxicity against human HS766 cell line by MTT assay
Assay type: functional, cell-based
One number for each entry, as −log10 of the molar value.

Before answering, review these 2 worked examples.
Nc1ccccc1C(=O)NC(=O)Nc1ccc(Oc2ncc(Br)cn2)cc1    6.57
O=C(NC(=O)c1ccccc1[N+](=O)[O-])Nc1ccc(Oc2ncc(Br)cn2)cc1    6.33

Batch request: pIC50 for each of the following molecules.
1. O=C(NC(=O)c1ccccc1[N+](=O)[O-])Nc1ccc([S+]([O-])c2ncc(Br)cn2)cc1 (stereo not given)
2. Nc1ccccc1C(=O)NC(=O)Nc1ccc(Sc2ncccn2)cc1
3. O=C(NC(=O)c1ccccc1)Nc1ccc(Sc2ncc(Br)cn2)cc1

Reply:
1: 5.19; 2: 5.10; 3: 5.26

* * *

System: PANC-1
Method Description: Cytotoxicity against human Panc1 cell line by MTT assay
Assay type: functional, cell-based
Test Readout: pIC50
Numbers only, as −log10 of the molar value.

Before answering, review these 5 worked examples.
Nc1ccccc1C(=O)NC(=O)Nc1ccc(Oc2ncc(Br)cn2)cc1    5.46
Nc1ccccc1C(=O)NC(=O)Nc1ccc(Sc2ncccn2)cc1    5.12
O=C(NC(=S)Nc1ccc(Sc2ncc(Br)cn2)cc1)c1ccccc1    5.02
O=C(NC(=O)c1ccccc1[N+](=O)[O-])Nc1ccc(Sc2ncc(Br)cn2)cc1    7.07
Nc1ccccc1C(=O)NC(=O)Nc1ccc(Sc2ncc(Br)cn2)cc1    7.05

Batch request: pIC50 for each of the following compounds.
1. Cc1cc(NC(=O)NC(=O)c2ccccc2N(C)C)ccc1Oc1ncc(Br)cn1
2. O=C(NC(=O)c1ccccc1[N+](=O)[O-])Nc1ccc(Oc2ncc(Br)cn2)cc1
3. O=C(NC(=O)c1ccccc1[N+](=O)[O-])Nc1ccc([S+]([O-])c2ncc(Br)cn2)cc1 (stereo not given)

Reply:
6.15
6.17
5.19

* * *

Measured Target: Tubulin
Method Description: Inhibition of tubulin polymerization
Test Readout: pIC50
Numbers only, as −log10 of the molar value.

Before answering, review these 2 worked examples.
O=C(NC(=O)c1ccccc1[N+](=O)[O-])Nc1ccc(Sc2ncc(Br)cn2)cc1    5.68
O=C(NC(=O)c1ccccc1[N+](=O)[O-])Nc1ccc(Oc2ncc(Br)cn2)cc1    5.33

Query compound follows.
Ask: GET pIC50 where system = Tubulin and item = Nc1ccccc1C(=O)NC(=O)Nc1ccc(Oc2ncc(Br)cn2)cc1
Reply: 4.44

* * *

Test system: Hs 766
Method Description: Cytotoxicity against human HS766 cell line by MTT assay
Assay type: functional, cell-based
Test Readout: pIC50
Numbers only, as −log10 of the molar value.

Before answering, review these 3 worked examples.
O=C(NC(=O)c1ccccc1[N+](=O)[O-])Nc1ccc(Sc2ncc(Br)cn2)cc1    7.06
Nc1ccccc1C(=O)NC(=O)Nc1ccc(Sc2ncc(Br)cn2)cc1    6.15
O=C(NC(=S)Nc1ccc(Sc2ncc(Br)cn2)cc1)c1ccccc1    5.07

Ask: Name the recorded pIC50 of the compound listed here: Cc1cc(NC(=O)NC(=O)c2ccccc2N(C)C)ccc1Oc1ncc(Br)cn1
Reply: 6.00

Value source: ChEMBL document CHEMBL1146091
